# credit: the supplement of paper PMC10065799

biological target: Jak2 (UniProt O60674); assay: phosphorylation enrichment, bacterial display (enrichment ratio); higher = better substrate or ligand; peptides without Tyr show the background;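 further: 11-residue human phosphosite peptides and single-mutation variants displayed on the E. coli surface, counted by deep sequencing, each peptide's frequency after selection divided by its frequency in the unselected input library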;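 further: frequency after pTyr selection over input frequency; kinase dosed for 20-30% of maximal phosphorylation in three min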
Sequence (O60674 whole entry, looked up): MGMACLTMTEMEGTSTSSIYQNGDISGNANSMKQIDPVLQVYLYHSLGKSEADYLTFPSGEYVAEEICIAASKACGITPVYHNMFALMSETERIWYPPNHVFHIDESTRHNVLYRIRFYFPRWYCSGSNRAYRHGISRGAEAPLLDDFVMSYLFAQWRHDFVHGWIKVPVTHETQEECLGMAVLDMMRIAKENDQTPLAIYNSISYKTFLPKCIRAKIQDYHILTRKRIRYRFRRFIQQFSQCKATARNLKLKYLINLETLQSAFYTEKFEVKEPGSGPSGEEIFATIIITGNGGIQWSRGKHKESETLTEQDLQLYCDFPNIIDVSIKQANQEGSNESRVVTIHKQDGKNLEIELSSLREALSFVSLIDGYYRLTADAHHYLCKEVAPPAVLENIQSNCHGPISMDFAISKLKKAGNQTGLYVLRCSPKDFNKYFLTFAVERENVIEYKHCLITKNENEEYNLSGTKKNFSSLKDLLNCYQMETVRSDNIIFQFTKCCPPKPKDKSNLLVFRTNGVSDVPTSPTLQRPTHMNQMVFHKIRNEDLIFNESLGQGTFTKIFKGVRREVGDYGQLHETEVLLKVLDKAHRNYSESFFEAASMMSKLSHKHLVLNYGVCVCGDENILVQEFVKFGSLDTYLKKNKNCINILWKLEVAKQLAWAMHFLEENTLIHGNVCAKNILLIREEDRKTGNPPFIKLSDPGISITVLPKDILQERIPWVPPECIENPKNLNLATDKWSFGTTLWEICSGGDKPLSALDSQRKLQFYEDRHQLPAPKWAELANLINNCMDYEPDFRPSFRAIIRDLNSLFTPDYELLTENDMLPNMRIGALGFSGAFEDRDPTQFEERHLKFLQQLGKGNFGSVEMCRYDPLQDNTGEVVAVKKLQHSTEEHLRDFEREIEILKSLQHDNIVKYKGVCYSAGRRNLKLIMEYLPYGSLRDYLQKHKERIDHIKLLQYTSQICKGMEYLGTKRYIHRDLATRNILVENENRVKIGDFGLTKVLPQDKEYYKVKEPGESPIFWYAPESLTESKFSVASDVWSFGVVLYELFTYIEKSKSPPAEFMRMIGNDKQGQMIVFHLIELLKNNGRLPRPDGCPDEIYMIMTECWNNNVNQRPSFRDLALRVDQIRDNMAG
Label scheme, based on phosphorylation enrichment: lower segment = under 0.7, middle segment = from 0.7 up to 1, upper segment = 1 and over

                            sequence           class
0       EEQKKYFNAMK [SCN5A_Y1494_YF]   lower segment
1          KTNVSYCGALD [CACNB4_Y103]  middle segment
2           INITIYGKTFR [EFHC1_Y177]   upper segment
3   HCFNSYTFPRL [PAK7_Y316_S312C_YF]   upper segment
4  RGFRVCFTPDS [PTPRF_Y450_Y450C_YF]   upper segment
5       DSSIRYLQEIH [FGG_Y135_Y140H]   lower segment
6            LNAGAYSKVVQ [PPT1_Y172]   upper segment
7            ANFAKYGNPNE [BCHE_Y505]   lower segment

Which phosphorylation enrichment category applies to VLNDAYENLTR [SYNE2_Y3255] here? lower segment

Which phosphorylation enrichment category applies to CCNHPYLINGA [CHD7_Y1256] here? lower segment

Which phosphorylation enrichment category applies to TRNRDYDDIDD [TTYH2_Y424] here? middle segment

Which phosphorylation enrichment category applies to EVTRLYGSVCD [TC2N_Y154_K151T] here? upper segment

Which phosphorylation enrichment category applies to SETSRYLSELF [KCNJ3_Y67_D70E] here? middle segment
